Here's a batch of compounds along with measured Ki for WNV NS2B-NS3 protease (West Nile virus).
readout: Ki (µM)

[
  {
    "compound": "OCC#C[C@@H](Nc1ccc2c(c1)CNC2)c1cc(Cl)cc2[nH]ncc12",
    "endpoint_value": 21
  },
  {
    "compound": "O=C(Nc1ccc2c(c1)CNC2)c1cc(Cl)cc2[nH]ncc12",
    "endpoint_value": 2.9
  },
  {
    "compound": "N#C[C@@H](Nc1ccc2c(c1)CNC2)c1cc(Cl)cc2[nH]ncc12",
    "endpoint_value": 18
  },
  {
    "compound": "CC(C)NC(=O)[C@@H](Nc1ccc2c(c1)CNC2)c1cc(Cl)cc2[nH]ncc12 [ASAP-0029974]",
    "endpoint_value": 0.36
  }
]

---

measured_target: ZIKV NS2B-NS3 protease (Zika virus, UniProt A0A024B7W1)
Construct: directed at the co-expressed ZIKV NS2B-NS3 protease
Sequence (A0A024B7W1 1503-1680): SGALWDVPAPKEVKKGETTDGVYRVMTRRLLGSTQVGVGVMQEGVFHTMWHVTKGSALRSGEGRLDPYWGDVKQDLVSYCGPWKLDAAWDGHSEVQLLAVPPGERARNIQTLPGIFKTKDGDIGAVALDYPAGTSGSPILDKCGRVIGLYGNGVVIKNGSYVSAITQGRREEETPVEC
Sequence (A0A024B7W1 1425-1464): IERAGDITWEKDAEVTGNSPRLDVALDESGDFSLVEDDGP
assay_comment: ZIKV NS2B-NS3 protease biochemical FRET assay
condition: library 1, supplement; read-out: ZIKV NS2B-NS3 Ki
pKi: −log10 of the molar value.

[
  {
    "smiles_notation": "C[C@]1(CNC(=O)c2cc(Cl)cc(NC(=O)OCc3ccccc3)c2)CNCCOC1",
    "measured_target": "ZIKV NS2B-NS3 protease (Zika virus, UniProt A0A024B7W1)",
    "pKi": "< 4.05"
  },
  {
    "smiles_notation": "O=C(Nc1cc(Cl)cc(C(=O)NC2([C@H]3CCNC3)CC2)c1)OCc1ccccc1",
    "measured_target": "ZIKV NS2B-NS3 protease (Zika virus, UniProt A0A024B7W1)",
    "pKi": "< 4.05"
  },
  {
    "smiles_notation": "C[C@@H](N)c1ccc(NC(=O)c2cc(Cl)cc(NC(=O)OCc3ccccc3)c2)cc1",
    "measured_target": "ZIKV NS2B-NS3 protease (Zika virus, UniProt A0A024B7W1)",
    "pKi": 4.88
  },
  {
    "smiles_notation": "NC[C@H]1C[C@@H](CNC(=O)c2cc(Cl)cc(NC(=O)OCc3ccccc3)c2)CCO1",
    "measured_target": "ZIKV NS2B-NS3 protease (Zika virus, UniProt A0A024B7W1)",
    "pKi": "< 4.05"
  },
  {
    "smiles_notation": "O=C(Nc1cc(Cl)cc(C(=O)NC[C@@H]2CC3(CNC3)CO2)c1)OCc1ccccc1",
    "measured_target": "ZIKV NS2B-NS3 protease (Zika virus, UniProt A0A024B7W1)",
    "pKi": 4.38
  },
  {
    "smiles_notation": "O=C(Nc1cc(Cl)cc(C(=O)NC[C@@H]2CCNC3(CC3)C2)c1)OCc1ccccc1",
    "measured_target": "ZIKV NS2B-NS3 protease (Zika virus, UniProt A0A024B7W1)",
    "pKi": "< 4.05"
  },
  {
    "smiles_notation": "O=C(Nc1cc(Cl)cc(C(=O)NC[C@H]2CNC3(CC3)CO2)c1)OCc1ccccc1",
    "measured_target": "ZIKV NS2B-NS3 protease (Zika virus, UniProt A0A024B7W1)",
    "pKi": "< 4.05"
  },
  {
    "smiles_notation": "O=C(Nc1cc(Cl)cc(C(=O)NC[C@@H]2CNCCC2(F)F)c1)OCc1ccccc1",
    "measured_target": "ZIKV NS2B-NS3 protease (Zika virus, UniProt A0A024B7W1)",
    "pKi": "< 4.05"
  },
  {
    "smiles_notation": "C=CC[C@@]1(NC(=O)c2cc(Cl)cc(NC(=O)OCc3ccccc3)c2)CCNC1",
    "measured_target": "ZIKV NS2B-NS3 protease (Zika virus, UniProt A0A024B7W1)",
    "pKi": "< 4.05"
  }
]

---

Tested on: Vero E6 cells
assay_comment: Cytotoxicity in uninfected Vero E6 cells
Format: cell-based
condition: Vero E6 cells, 0.5 uM CP100356 as P-gp inhibitor

[
  {
    "compound": "Cc1cc([C@H](Nc2ccc3c(c2)CNC3)C(=O)NCC(F)F)cc(C(F)(F)F)c1 [ASAP-0036543]",
    "CC50": "> 50 µM"
  }
]

---

assay_comment: MDR1-MDCK permeability
Type: in vitro ADME
condition: dog, MDCK-MDR1, A→B
Form field: Papp A→B (one value per entry).

[
  {
    "molecule": "O=C(Nc1ccc2c(c1)CNC2)c1cc(Cl)cc2[nH]ncc12 [ASAP-0027808]",
    "Papp A→B (×10⁻⁶ cm/s)": 2
  },
  {
    "molecule": "Cc1cc([C@H](Nc2ccc3c(c2)CNC3)C(=O)NCC(F)F)cc(C(F)(F)F)c1 [ASAP-0036543]",
    "Papp A→B (×10⁻⁶ cm/s)": 1.2
  },
  {
    "molecule": "N#C[C@@H](Nc1ccc2c(c1)CNC2)c1cc(Cl)cc2[nH]ncc12 [ASAP-0028904]",
    "Papp A→B (×10⁻⁶ cm/s)": 1.1
  },
  {
    "molecule": "OCC#C[C@@H](Nc1ccc2c(c1)CNC2)c1cc(Cl)cc2[nH]ncc12 [ASAP-0028990]",
    "Papp A→B (×10⁻⁶ cm/s)": 0.59
  }
]

---

The following compounds are listed with their measured ZIKV NS2B-NS3 pKi values.
measured_target: ZIKV NS2B-NS3 protease (Zika virus, UniProt A0A024B7W1)
Construct: directed at the co-expressed ZIKV NS2B-NS3 protease
assay_comment: ZIKV NS2B-NS3 protease biochemical FRET assay
condition: library 1, supplement
readout: ZIKV NS2B-NS3 pKi

[
  {
    "smiles_notation": "NC[C@H]1C[C@@H](CNC(=O)c2cc(Cl)cc(NC(=O)OCc3ccccc3)c2)CCO1",
    "endpoint_value": "< 4.05"
  },
  {
    "smiles_notation": "O=C(Nc1cc(Cl)cc(C(=O)NC[C@@H]2CNCCC2(F)F)c1)OCc1ccccc1",
    "endpoint_value": "< 4.05"
  },
  {
    "smiles_notation": "O=C(Nc1cc(Cl)cc(C(=O)NC[C@H]2CNC3(CC3)CO2)c1)OCc1ccccc1",
    "endpoint_value": "< 4.05"
  },
  {
    "smiles_notation": "C=CC[C@@]1(NC(=O)c2cc(Cl)cc(NC(=O)OCc3ccccc3)c2)CCNC1",
    "endpoint_value": "< 4.05"
  },
  {
    "smiles_notation": "O=C(Nc1cc(Cl)cc(C(=O)NC[C@@H]2CC3(CNC3)CO2)c1)OCc1ccccc1",
    "endpoint_value": 4.38
  },
  {
    "smiles_notation": "O=C(Nc1cc(Cl)cc(C(=O)NC[C@@H]2CCNC3(CC3)C2)c1)OCc1ccccc1",
    "endpoint_value": "< 4.05"
  },
  {
    "smiles_notation": "O=C(Nc1cc(Cl)cc(C(=O)NC2([C@H]3CCNC3)CC2)c1)OCc1ccccc1",
    "endpoint_value": "< 4.05"
  },
  {
    "smiles_notation": "C[C@]1(CNC(=O)c2cc(Cl)cc(NC(=O)OCc3ccccc3)c2)CNCCOC1",
    "endpoint_value": "< 4.05"
  },
  {
    "smiles_notation": "C[C@@H](N)c1ccc(NC(=O)c2cc(Cl)cc(NC(=O)OCc3ccccc3)c2)cc1",
    "endpoint_value": 4.88
  }
]

---

measured_target: ZIKV NS2B-NS3 protease (Zika virus, UniProt A0A024B7W1)
Construct: directed at the co-expressed ZIKV NS2B-NS3 protease
assay_comment: ZIKV NS2B-NS3 protease biochemical FRET assay
condition: ZIKV NS2B-NS3 Ki
pKi: −log10 of the molar value.
readout: pKi

[
  {
    "compound": "CC(C)NC(=O)[C@@H](Nc1ccc2c(c1)CN(C)C2)c1cc(Cl)cc2[nH]ncc12 [ASAP-0031156]",
    "readout": "pKi",
    "endpoint_value": 6.32
  },
  {
    "compound": "CC(C)NC(=O)[C@@H](Nc1ccc2c(c1)CNC2)c1cc(Cl)cc2[nH]ncc12 [ASAP-0029000]",
    "readout": "pKi",
    "endpoint_value": 7.11
  },
  {
    "compound": "C=CC[C@@H](Nc1ccc2c(c1)CNC2)c1cc(Cl)cc2[nH]ncc12 [ASAP-0029049]",
    "readout": "pKi",
    "endpoint_value": 5.15
  },
  {
    "compound": "NCc1cccc(NC(=O)c2cc(Cl)cc3[nH]ncc23)c1 [ASAP-0023261]",
    "readout": "pKi",
    "endpoint_value": 6.10
  },
  {
    "compound": "CC(C)NC(=O)[C@@H](Nc1ccc2c(c1)CNC2)c1cc(Cl)cc2[nH]ncc12 [ASAP-0029974]",
    "readout": "pKi",
    "endpoint_value": 7.32
  },
  {
    "compound": "Cc1cc([C@H](Nc2ccc3c(c2)CNC3)C(=O)NCC(F)F)cc(C(F)(F)F)c1 [ASAP-0036543]",
    "readout": "pKi",
    "endpoint_value": 8.54
  },
  {
    "compound": "N#C[C@@H](Nc1ccc2c(c1)CNC2)c1cc(Cl)cc2[nH]ncc12 [ASAP-0028904]",
    "readout": "pKi",
    "endpoint_value": 7.00
  },
  {
    "compound": "OCC#C[C@@H](Nc1ccc2c(c1)CNC2)c1cc(Cl)cc2[nH]ncc12 [ASAP-0028990]",
    "readout": "pKi",
    "endpoint_value": 6.00
  },
  {
    "compound": "NCc1cccc(NC(=O)c2cc(Cl)cc(NC(=O)OCc3ccccc3)c2)c1 [ASAP-0016806]",
    "readout": "pKi",
    "endpoint_value": 5.37
  },
  {
    "compound": "Clc1cc(CNc2ccc3c(c2)CNC3)c2cn[nH]c2c1 [ASAP-0029525]",
    "readout": "pKi",
    "endpoint_value": 5.54
  },
  {
    "compound": "O=C(Nc1ccc2c(c1)CNC2)c1cc(Cl)cc2[nH]ncc12 [ASAP-0027808]",
    "readout": "pKi",
    "endpoint_value": 7.05
  }
]
